- Procedure Summary: recombinant barcode read abundance after kanamycin selection (control-corrected) (log10(CPM+1)); higher = more efficient recombination; sequences stand for … in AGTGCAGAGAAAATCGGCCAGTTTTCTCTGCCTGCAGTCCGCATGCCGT…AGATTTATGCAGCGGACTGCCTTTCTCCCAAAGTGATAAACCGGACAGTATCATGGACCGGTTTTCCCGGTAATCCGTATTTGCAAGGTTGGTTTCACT; site = the 11-nt target
Threshold check on recombinant barcode read abundance (log10): at or above 1 gives fulfilled, strictly below gives not fulfilled.

Assess whether reported recombinant barcode read abundance (log10) for GGGACCTCTTGGGTTCTAACCTGTTGCGT (site GGGACCTCTCC) sits at 1 or higher.
not fulfilled

And what about the sequence GGGAACCCTTGGGTTCTAACCTGTTGCTC (site GGGAACCCTGA) ?
fulfilled

Another sequence to check: AGAGGTTCTTGGGTTCTAACCTGTTGCCT (site AAAGGTTCTAG)
not fulfilled

Item: GCAAGGGCTTGGGTTCTAACCTGTTGCCG (site GCAAGGGCTCG)
fulfilled

Entry GAGACGACTTGGGTTCTAACCTGTTGCCG (site GAGACGACTCG) please
fulfilled

* * *

- Procedure Summary: recombinant UMI read abundance after kanamycin selection (control-corrected) (log10(CPM+1)); higher = more efficient recombination; extreme values may be limits of the assay; sequences stand for … in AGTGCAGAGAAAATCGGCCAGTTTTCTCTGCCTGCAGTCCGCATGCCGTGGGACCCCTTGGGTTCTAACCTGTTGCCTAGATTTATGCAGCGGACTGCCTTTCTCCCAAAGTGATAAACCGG…AGGTTGGTTTCACT; site = the 11-nt donor
Observable: recombinant UMI read abundance (log10)
Please state the value as a number alone, without comment.

Endpoint output: recombinant UMI read abundance (log10) of GAATGGCCATGGACCGGTTTTCCCGGTAATCCGTATTTGCT (site GAATGGCCTCG) . Value?
0.0255

Then ATTTAGACATGGACCGGTTTTCCCGGTAATCCGTATTTGCG (site ATTTAGACTCG) ?
1.16

Now consider TCATGCCCATGGACCGGTTTTCCCGGTAATCCGTATTTGGC (site TCATGCCCTGC) and answer again.
0

Also check GTAGGAACATGGACCGGTTTTCCCGGTAATCCGTATTTGAC (site GTAGGAACTGT)
2.59

And what about the sequence GATTTGACATGGACCGGTTTTCCCGGTAATCCGTATTTGAC (site GATTCGACTGT) ?
0

Let us now turn to ATAAAGCCATGGACCGGTTTTCCCGGTAATCCGTATTTGAC (site ATAATGCCTGT)
0

Ok, now AGGTTACCATGGACCGGTTTTCCCGGTAATCCGTATTTGTG (site AGGTTACCTCA)
0.0116

And for TCATACACATGGACCGGTTTTCCCGGTAATCCGTATTTGCA (site TCATACACTTG) ?
2.45

Moving on to ATAAGACCATGGACCGGTTTTCCCGGTAATCCGTATTTGAC (site ATAAGCCCTGT)
0

And then TCCTTTGCATGGACCGGTTTTCCCGGTAATCCGTATTTGTG (site TCCTTTGCTCA) , what is it?
0.0203

Similarly, TGGCCTTCATGGACCGGTTTTCCCGGTAATCCGTATTTGGT (site TCGCCTTCTAC) ?
1.02

Consider next the sequence GAAAATTCATGGACCGGTTTTCCCGGTAATCCGTATTTGTT (site GAACATTCTAA) in the same way.
0

And then CAAGCGACATGGACCGGTTTTCCCGGTAATCCGTATTTGTG (site CAAGCGACTCA) , what is it?
1.19

How about this sequence: AGTTCAGCATGGACCGGTTTTCCCGGTAATCCGTATTTGGG (site AGCTCAGCTCC)
0.0322

Same again, this time with CAAGCACCATGGACCGGTTTTCCCGGTAATCCGTATTTGTG (site CAAGCGCCTCA)
0.00843

What do you get for CGGATTCCATGGACCGGTTTTCCCGGTAATCCGTATTTGTT (site CGGATTCCTAA) ?
0.599

Please answer likewise for CGTGGATCATGGACCGGTTTTCCCGGTAATCCGTATTTGTT (site CGTGGAACTAA)
0.0027

Follow-up entry: ATAGCTGCATGGACCGGTTTTCCCGGTAATCCGTATTTGTG (site TTAGCTGCTCA)
0.0149
